Assay: Pharmacokinetics of caspofungin during continuous venovenous hemodiafiltration (CVVHD)
Type: in vivo, human
Details: human, in vivo, iv, patient 3; 1 h after infusion ended; steady state, CVVHD; HPLC; read-out: Arterial caspofungin concentration

compound: CC[C@H](C)C[C@H](C)CCCCCCCCC(=O)N[C@H]1C[C@@H](O)[C@@H](NCCN)NC(=O)[C@@H]2[C@@H](O)CCN2C(=O)[C@H]([C@H](O)CCN)NC(=O)[C@H]([C@H](O)[C@@H](O)c2ccc(O)cc2)NC(=O)[C@@H]2C[C@@H](O)CN2C(=O)[C@H]([C@@H](C)O)NC1=O [caspofungin]
level at 1 h (ng/mL): 8230
